# measurement-notes: recombinant UMI read abundance after kanamycin selection (control-corrected) (log10(CPM+1)); higher = more efficient recombination; extreme values may be limits of the assay; sequences stand for … in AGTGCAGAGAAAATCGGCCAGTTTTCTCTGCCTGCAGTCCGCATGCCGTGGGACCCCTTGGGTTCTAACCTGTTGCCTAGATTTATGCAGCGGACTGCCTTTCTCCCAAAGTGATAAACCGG…AGGTTGGTTTCACT; site = the 11-nt donor
Kindly state recombinant UMI read abundance (log10) for each of the entries shown.

Per the records, this sequence ( CGGAACGCATGGACCGGTTTTCCCGGTAATCCGTATTTGTT (site CGGAATCCTAA) ) has recombinant UMI read abundance (log10) equal to 0.0213

Per the records, this sequence ( CGATCGCCATGGACCGGTTTTCCCGGTAATCCGTATTTGTT (site CGATCGGCTAA) ) has recombinant UMI read abundance (log10) equal to 0

Per the records, this sequence ( CACATGGCATGGACCGGTTTTCCCGGTAATCCGTATTTGGA (site CACATGGCTTC) ) has recombinant UMI read abundance (log10) equal to 0.785

Per the records, this sequence ( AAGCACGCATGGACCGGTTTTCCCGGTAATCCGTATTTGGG (site AAGCACGCTCG) ) has recombinant UMI read abundance (log10) equal to 0.00834

Per the records, this sequence ( GCGCCGGCATGGACCGGTTTTCCCGGTAATCCGTATTTGTG (site GCGCCGGCTCA) ) has recombinant UMI read abundance (log10) equal to 0.015

Per the records, this sequence ( CACTTCGCATGGACCGGTTTTCCCGGTAATCCGTATTTGGA (site CACTTCGCTTC) ) has recombinant UMI read abundance (log10) equal to 0.493

Per the records, this sequence ( TTGTACGCATGGACCGGTTTTCCCGGTAATCCGTATTTGCA (site TTGTACGCTTG) ) has recombinant UMI read abundance (log10) equal to 1.8

Per the records, this sequence ( GGGAAGACATGGACCGGTTTTCCCGGTAATCCGTATTTGGA (site AGGAAGACTTG) ) has recombinant UMI read abundance (log10) equal to 0.00654

Per the records, this sequence ( TTTTCGGCATGGACCGGTTTTCCCGGTAATCCGTATTTGCT (site TTTCCGGCTAG) ) has recombinant UMI read abundance (log10) equal to 0.302

###

# measurement-notes: recombinant UMI read abundance after kanamycin selection (control-corrected) (log10(CPM+1)); higher = more efficient recombination; extreme values may be limits of the assay; sequences stand for … in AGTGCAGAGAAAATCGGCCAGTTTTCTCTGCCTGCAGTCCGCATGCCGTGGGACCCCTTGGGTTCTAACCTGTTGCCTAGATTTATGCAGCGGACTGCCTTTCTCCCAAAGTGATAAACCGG…AGGTTGGTTTCACT; site = the 11-nt donor
result-type: recombinant UMI read abundance (log10)
Answer with a number only.

Per the records, this sequence ( TCGGAGACATGGACCGGTTTTCCCGGTAATCCGTATTTGCG (site TCTGAGACTCG) ) has recombinant UMI read abundance (log10) equal to 0.976

Per the records, this sequence ( CGCGGTACATGGACCGGTTTTCCCGGTAATCCGTATTTGCT (site CGCGGTACTAG) ) has recombinant UMI read abundance (log10) equal to 1.92

Per the records, this sequence ( AATGTCACATGGACCGGTTTTCCCGGTAATCCGTATTTGCT (site AATGTCACTAG) ) has recombinant UMI read abundance (log10) equal to 2.41

Per the records, this sequence ( CCAGGTGCATGGACCGGTTTTCCCGGTAATCCGTATTTGCT (site CCAGGTGCTAT) ) has recombinant UMI read abundance (log10) equal to 0.402

Per the records, this sequence ( GACATCCCATGGACCGGTTTTCCCGGTAATCCGTATTTGAA (site GACATCCCTTT) ) has recombinant UMI read abundance (log10) equal to 0.475

Per the records, this sequence ( ATCGGGACATGGACCGGTTTTCCCGGTAATCCGTATTTGTG (site ATCGGGACTCA) ) has recombinant UMI read abundance (log10) equal to 0.972

Per the records, this sequence ( CCCAAGCCATGGACCGGTTTTCCCGGTAATCCGTATTTGCC (site CCCTAGCCTGG) ) has recombinant UMI read abundance (log10) equal to 0.398

Per the records, this sequence ( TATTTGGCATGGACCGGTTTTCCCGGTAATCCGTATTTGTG (site TATTTGGCTCG) ) has recombinant UMI read abundance (log10) equal to 0.00904

Per the records, this sequence ( TGTTAGCCATGGACCGGTTTTCCCGGTAATCCGTATTTGAC (site TGTTAGCCTGT) ) has recombinant UMI read abundance (log10) equal to 0

###

# measurement-notes: recombinant barcode read abundance after kanamycin selection (control-corrected) (log10(CPM+1)); higher = more efficient recombination; sequences stand for … in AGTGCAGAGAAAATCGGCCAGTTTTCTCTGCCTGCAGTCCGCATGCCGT…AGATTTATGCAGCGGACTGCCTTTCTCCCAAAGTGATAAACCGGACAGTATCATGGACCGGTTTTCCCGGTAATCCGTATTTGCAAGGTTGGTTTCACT; site = the 11-nt target
result-type: recombinant barcode read abundance (log10)
Answer with a number only.

Per the records, this sequence ( ACCTAACCTTGGGTTCTAACCTGTTGCAT (site ACCTAACCTAT) ) has recombinant barcode read abundance (log10) equal to 1.67

Per the records, this sequence ( ACGTCGTCTTGGGTTCTAACCTGTTGCCT (site ACGTCGTCTAG) ) has recombinant barcode read abundance (log10) equal to 0.0697

Per the records, this sequence ( AGGGTAGCTTGGGTTCTAACCTGTTGCCT (site AGGGCAGCTAG) ) has recombinant barcode read abundance (log10) equal to 0.224

Per the records, this sequence ( TGCCAGACTTGGGTTCTAACCTGTTGCGT (site TGCCAGACTAC) ) has recombinant barcode read abundance (log10) equal to 1.74

Per the records, this sequence ( CAAATAACTTGGGTTCTAACCTGTTGCCT (site CAAATAACTAG) ) has recombinant barcode read abundance (log10) equal to 0.461

Per the records, this sequence ( TGAGTGCCTTGGGTTCTAACCTGTTGCTT (site TGAGTACCTAA) ) has recombinant barcode read abundance (log10) equal to 0.682

Per the records, this sequence ( CAGGCCACTTGGGTTCTAACCTGTTGCCT (site CAGGCCACTAG) ) has recombinant barcode read abundance (log10) equal to 0.945

Per the records, this sequence ( GTGCGCCCTTGGGTTCTAACCTGTTGCGG (site GTGCGCCCTCC) ) has recombinant barcode read abundance (log10) equal to 1.28

Per the records, this sequence ( GTGAGCACTTGGGTTCTAACCTGTTGCTA (site AATTAGCCTAG) ) has recombinant barcode read abundance (log10) equal to 0.0422

Per the records, this sequence ( ATCGGAGCTTGGGTTCTAACCTGTTGCCG (site ATCGGAGCTCT) ) has recombinant barcode read abundance (log10) equal to 0.123

Per the records, this sequence ( TATTCACCTTGGGTTCTAACCTGTTGCCT (site AATTCACCTAG) ) has recombinant barcode read abundance (log10) equal to 0.0667

Per the records, this sequence ( AGAAGCCCTTGGGTTCTAACCTGTTGCCT (site AAAAGCCCTAG) ) has recombinant barcode read abundance (log10) equal to 0.134

Per the records, this sequence ( AAATCCTCTTGGGTTCTAACCTGTTGCCT (site CAATCCTCTAG) ) has recombinant barcode read abundance (log10) equal to 0.475

Per the records, this sequence ( GGTCGGGCTTGGGTTCTAACCTGTTGCCT (site GGTCGGGCTAG) ) has recombinant barcode read abundance (log10) equal to 0.401

Per the records, this sequence ( GGTTGTTCTTGGGTTCTAACCTGTTGCCT (site GGTTGTTCTAG) ) has recombinant barcode read abundance (log10) equal to 0.19

Per the records, this sequence ( GCGCTCCCTTGGGTTCTAACCTGTTGCCT (site GCCCTCCCTAG) ) has recombinant barcode read abundance (log10) equal to 0.388

Per the records, this sequence ( CCGGGATCTTGGGTTCTAACCTGTTGCCT (site CCGGGATCTAG) ) has recombinant barcode read abundance (log10) equal to 1.22

Per the records, this sequence ( ATAGAGTCTTGGGTTCTAACCTGTTGCCG (site GCTCCTCCTAT) ) has recombinant barcode read abundance (log10) equal to 0.173

Per the records, this sequence ( TTGAGGCCTTGGGTTCTAACCTGTTGCGG (site TTGAGGCCTCC) ) has recombinant barcode read abundance (log10) equal to 2.39

Per the records, this sequence ( TAGTGTTCTTGGGTTCTAACCTGTTGCCT (site TAGTGTACTAG) ) has recombinant barcode read abundance (log10) equal to 0.104

Per the records, this sequence ( TAGCGTCCTTGGGTTCTAACCTGTTGCAC (site TAGCGTCCTGT) ) has recombinant barcode read abundance (log10) equal to 1.11

Per the records, this sequence ( ACTGGGGCTTGGGTTCTAACCTGTTGCCA (site ACTGGGGCTTG) ) has recombinant barcode read abundance (log10) equal to 0.782

Per the records, this sequence ( TACGACTCTTGGGTTCTAACCTGTTGCTT (site TTCGACTCTTA) ) has recombinant barcode read abundance (log10) equal to 0.0713

Per the records, this sequence ( GCGCGGCCTTGGGTTCTAACCTGTTGCTT (site GCACGCCCTAA) ) has recombinant barcode read abundance (log10) equal to 0.0904

Per the records, this sequence ( CACTCTCCTTGGGTTCTAACCTGTTGCAT (site CACTCTCCTAG) ) has recombinant barcode read abundance (log10) equal to 0.11

Per the records, this sequence ( GACGGCACTTGGGTTCTAACCTGTTGCCT (site GACGGCACTAG) ) has recombinant barcode read abundance (log10) equal to 0.567

Per the records, this sequence ( TAGACAGCTTGGGTTCTAACCTGTTGCCT (site TATACAGCTAG) ) has recombinant barcode read abundance (log10) equal to 0.0229

Per the records, this sequence ( AGGCTGGCTTGGGTTCTAACCTGTTGCCT (site AGGCTGTCTAG) ) has recombinant barcode read abundance (log10) equal to 0.166

Per the records, this sequence ( CAAGTGGCTTGGGTTCTAACCTGTTGCCT (site CAAGTCGCTAG) ) has recombinant barcode read abundance (log10) equal to 0.0501

Per the records, this sequence ( GGGCCTTCTTGGGTTCTAACCTGTTGCAT (site GGGCCTTCTAT) ) has recombinant barcode read abundance (log10) equal to 1.07

Per the records, this sequence ( TAGTGTCCTTGGGTTCTAACCTGTTGCCT (site TAGTGTACTAG) ) has recombinant barcode read abundance (log10) equal to 0.126

Per the records, this sequence ( GATTCTCCTTGGGTTCTAACCTGTTGCAT (site GATTCTCCTAG) ) has recombinant barcode read abundance (log10) equal to 0.0815

Per the records, this sequence ( AGCAACCCTTGGGTTCTAACCTGTTGCAA (site CCGGGTACTCG) ) has recombinant barcode read abundance (log10) equal to 0.0862

Per the records, this sequence ( GGCACTGCTTGGGTTCTAACCTGTTGCCT (site GGCACCGCTAG) ) has recombinant barcode read abundance (log10) equal to 0.123

Per the records, this sequence ( GCCGGGGCTTGGGTTCTAACCTGTTGCCG (site GCCCGGGCTCG) ) has recombinant barcode read abundance (log10) equal to 0.452

Per the records, this sequence ( TGCATAGCTTGGGTTCTAACCTGTTGCAG (site CTGCAGTCTTG) ) has recombinant barcode read abundance (log10) equal to 0.00928

Per the records, this sequence ( TATTAATCTTGGGTTCTAACCTGTTGCCT (site TATTAATCTAG) ) has recombinant barcode read abundance (log10) equal to 0.0472

Per the records, this sequence ( CTCCTACCTTGGGTTCTAACCTGTTGCCT (site CGCCTAGCTAG) ) has recombinant barcode read abundance (log10) equal to 0.11

Per the records, this sequence ( GGGGCATCTTGGGTTCTAACCTGTTGCTT (site GGGGCGTCTAA) ) has recombinant barcode read abundance (log10) equal to 0.0873

Per the records, this sequence ( CTCGCGACTTGGGTTCTAACCTGTTGCGG (site CTCGCGACTCC) ) has recombinant barcode read abundance (log10) equal to 0.181

Per the records, this sequence ( ATGGATACTTGGGTTCTAACCTGTTGCGT (site ATGGATACTAC) ) has recombinant barcode read abundance (log10) equal to 2.51

Per the records, this sequence ( GTCTCACCTTGGGTTCTAACCTGTTGCGG (site GTATCTCCTCC) ) has recombinant barcode read abundance (log10) equal to 0.094
